Reference source: paper PMC6271935

Tested on: HepG2.2.15 cells
method-description: Cytotoxicity in HepG2.2.15 cells (CPE)
Assay type: cell-based, human
test-context: 3 + 3 days
test-readout: TC50 (50% cytotoxic concentration), HBV

Consider the following illustrative entries.
COc1ccccc1/C=C/CNc1ccc2ncsc2c1; 28.87 µM
C(=C\c1ccccc1)/CNc1ccc2ncoc2c1; 28.87 µM
C(=C\c1ccccc1)/CNc1ccc2ncsc2c1; 9.62 µM
Cc1ccc(CNc2ccc3nc[nH]c3c2)o1; >50 µM
Cc1ccc(CNc2ccc3cc[nH]c3c2)o1; 16.67 µM

// switching to the query compound
Lookup: Can you look up the measured TC50 (50% cytotoxic concentration), HBV of COc1cc(CNc2ccc3ncsc3c2)cc(Br)c1O for me?
Found: 28.87 µM
